assayOverview: qHTS RealTime-Glo MT Cell Viability Assay in HEK293 cells - 16 hour (AID 1224872); note: nearly all actives have a fitted effect of over 50% in size; note: potency is the fitted concentration of half-maximal effect
experimentalContext: RealTime-Glo luminescence; series mostly up to 76.8 µM
Records with an inconclusive call do not appear. The source made the active and inactive calls. Calls come from the whole dose curve; as a rule, active = well fitted cell-killing curve with a large enough effect in the repeat runs; inconclusive = weak or mixed curves, or effect the other way; inactive = flat fitted curve, though single readings scatter.
experimentalEndpoint: Potency

The cases that follow already have their Potency on record.
Asked: Which Potency is reported for this molecule? C[C@@]12C(=O)OC(=O)[C@]1(C)C1CCC2O1
Given back: 5.35 µM (active)

Asked: Which Potency is reported for this molecule? CCN=C1C=CC(=C(c2ccc(N(CC)CC)cc2)c2ccc(N(CC)CC)cc2)c2ccccc21
Given back: 13.7 µM (active)

Asked: Which Potency is reported for this molecule? CCOCOCC
Given back: inactive

Asked: Which Potency is reported for this molecule? C[Si](C)O[Si](C)C
Given back: inactive

Asked: Which Potency is reported for this molecule? CCCCCCC(C)OC(=O)COc1nc(F)c(Cl)c(N)c1Cl (configuration not stated)
Given back: inactive

Asked: Which Potency is reported for this molecule? CN1CN(C)CN(C)C1
Given back: inactive

Asked: Which Potency is reported for this molecule? Clc1cc(Cl)c(-c2c(Cl)c(Cl)cc(Cl)c2Cl)cc1Cl
Given back: inactive

Asked: Which Potency is reported for this molecule? CCOCN(C(=O)CS(=O)(=O)O)c1c(C)cccc1CC
Given back: inactive

***
Asked: Which Potency is reported for this molecule? Cc1cccc(N(C)C)c1
Given back: inactive

Asked: Which Potency is reported for this molecule? CCCCCCCCCCCCCC[n+]1ccccc1
Given back: 27.5 µM (active)

Asked: Which Potency is reported for this molecule? C=CC(C)C#N (configuration not stated)
Given back: inactive

Asked: Which Potency is reported for this molecule? CCCCCCCCCCCCCc1ccccc1
Given back: inactive

---

targetSystem: Cytochrome P450 2C19 (Homo sapiens)
assayOverview: Cytochrome P450 Family 2 Subfamily C Member 19 (CYP2C19) small molecule antagonists: luciferase reporter qHTS assay (AID 1671197); note: nearly all actives have a fitted effect of over 65% in size; note: potency is the fitted concentration of half-maximal effect
experimentalContext: P450-Glo CYP2C19 enzyme, luciferin luminescence, 1 h; series mostly up to 115 µM
Inconclusive results are not listed. Calls of active or inactive are those of the source. Calls come from the whole dose curve; as a rule, active = well fitted inhibition curve with a large enough effect in the repeat runs; inconclusive = weak or mixed curves; inactive = no such curve, though single readings can be large or run the other way.
experimentalEndpoint: Potency

Asked: Which Potency is reported for this molecule? CCCCCCCC/C=C\CCCCCCCC(=O)OCCOC(=O)CCCCCCC/C=C\CCCCCCCC
Given back: 46.5 µM (active)

Asked: Which Potency is reported for this molecule? Clc1nc2ccccc2s1
Given back: inactive

Asked: Which Potency is reported for this molecule? CCOC(=O)CC(C)O (stereo not drawn)
Given back: inactive

Asked: Which Potency is reported for this molecule? CC1(C)COCN1
Given back: inactive

Asked: Which Potency is reported for this molecule? CCCCCCCC/C=C/CCCOC(C)=O
Given back: 31.7 µM (active)

***
Asked: Which Potency is reported for this molecule? CCOC(=O)COc1ccc(C)cc1
Given back: inactive

Asked: Which Potency is reported for this molecule? CC(C)=CCCC(C)CCOC(=O)C(C)C (stereo not drawn)
Given back: 79.6 µM (active)

Asked: Which Potency is reported for this molecule? ClC/C=C\CCl
Given back: 33.1 µM (active)

---

targetSystem: Nuclear receptor subfamily 1 group I member 3 (Homo sapiens)
assayOverview: qHTS assay to identify small molecule antagonists of the constitutive androstane receptor (CAR) signaling pathway (AID 1224838);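 note: HepG2 cells stably expressing hCAR with CYP2B6 luciferase reporter stimulated by CITCO; nearly all actives have a fitted effect of over 40% in size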
experimentalContext: HepG2-CYP2B6-hCAR luciferase, CITCO-stimulated, 24 h; series mostly up to 92.4 µM
Results filed as inconclusive are left out. Active and inactive are the calls of the source. Calls follow the shape of the dose curve; as a rule, active = well fitted inhibition curve with a large enough effect in the repeat runs; inconclusive = weak or mixed curves, or effect the other way; inactive = no such curve, though single readings can be large or run the other way.
Choose the fitting class; nothing outside Yes (active), No (inactive) is accepted.

Asked: What did the test return for NC(=O)c1ccccc1N ?
Given back: No

Asked: What did the test return for CCC1(c2cnc[nH]2)Cc2ccccc2C1 ?
Given back: No

Asked: What did the test return for CC(COC(=O)c1ccccc1)OC(=O)c1ccccc1 (centres undefined) ?
Given back: No

Asked: What did the test return for CCC(C)(C)c1cc(O)c(C(C)(C)CC)cc1O ?
Given back: No

Asked: What did the test return for C=CC(=O)OCCC#N ?
Given back: No

Asked: What did the test return for CC(C)=CCCC(C)O (centres undefined) ?
Given back: No

Asked: What did the test return for CC(=O)O[C@@H]1C[C@@H]2CC[C@@]1(C)C2(C)C ?
Given back: No

Asked: What did the test return for C[Si](C)(C)Cl ?
Given back: No

Asked: What did the test return for CN1CN(C)CN(C)C1 ?
Given back: No

Asked: What did the test return for OCCC(O)CO (centres undefined) ?
Given back: No

Asked: What did the test return for O=CC1CC1 ?
Given back: No

Asked: What did the test return for CCOC(/C=C(\C)CCC=C(C)C)OCC ?
Given back: No

Asked: What did the test return for Cc1ccc(-n2[nH]c(C)c(N=Nc3cccc(-c4cccc(C(=O)O)c4)c3O)c2=O)cc1C ?
Given back: No

Asked: What did the test return for C1CC(COCC2CO2)CCC1COCC1CO1 (centres undefined) ?
Given back: No

Asked: What did the test return for c1cc[nH]c1 ?
Given back: No

Asked: What did the test return for CCc1ccc(C)nc1 ?
Given back: No

Asked: What did the test return for CCNc1nc(NC(C)CC)nc(OC)n1 (centres undefined) ?
Given back: No

Asked: What did the test return for CC(=O)OC(OC(C)=O)c1ccc([N+](=O)[O-])o1 ?
Given back: Yes

Asked: What did the test return for CN1[C@@H]2CC[C@H]1CC(OC(=O)C(CO)c1ccccc1)C2 (some centres undefined) ?
Given back: No

Asked: What did the test return for Nc1cc(Cl)c([N+](=O)[O-])cc1O ?
Given back: No

Asked: What did the test return for CCOC(=O)[C@@](C)(N)Cc1ccc(O)c(O)c1 ?
Given back: No

Asked: What did the test return for O=C1NCN(c2ccccc2)C12CCN(CCCC(c1ccc(F)cc1)c1ccc(F)cc1)CC2 ?
Given back: Yes

Asked: What did the test return for Cc1cnccn1 ?
Given back: No

Asked: What did the test return for O=C1c2c(O)ccc([N+](=O)[O-])c2C(=O)c2c([N+](=O)[O-])ccc(O)c21 ?
Given back: Yes

Asked: What did the test return for c1ccc2c(c1)CCC2 ?
Given back: No

Asked: What did the test return for O=C(Nc1ccc(Cl)cc1)Nc1ccc(Cl)c(C(F)(F)F)c1 ?
Given back: Yes

Asked: What did the test return for COc1cccc(O)c1 ?
Given back: No

Asked: What did the test return for CCCCCCCOC(=O)c1ccccc1C(=O)OCCCCCCC ?
Given back: No

Asked: What did the test return for O=C1OC(OC(=O)c2cccnc2Nc2cccc(C(F)(F)F)c2)c2ccccc21 (centres undefined) ?
Given back: No

Asked: What did the test return for OCCCCl ?
Given back: No

Asked: What did the test return for Cc1ccc(CCn2c3c(c4cc(Cl)ccc42)CN(C)CC3)cn1 ?
Given back: No

Asked: What did the test return for CCCCOc1ccc(C(=O)CCN2CCCCC2)cc1 ?
Given back: No

Asked: What did the test return for CO[Si](CCC1CCC2OC2C1)(OC)OC (centres undefined) ?
Given back: No

Asked: What did the test return for CC1=CCC(=O)O1 ?
Given back: No

Asked: What did the test return for CCOC(OCC)C(=O)c1ccccc1 ?
Given back: No

Asked: What did the test return for CO[C@H]1C=CO[C@@]2(C)Oc3c(C)c(O)c4c(O)c(cc(O)c4c3C2=O)NC(=O)/C(C)=C\C=C/[C@H](C)[C@H](O)[C@@H](C)[C@@H](O)[C@@H](C)[C@H](OC(C)=O)[C@@H]1C ?
Given back: No

Asked: What did the test return for C=C1C(C)(C)[C@@]2(Cl)C(Cl)[C@]1(Cl)C(Cl)(Cl)C2(Cl)Cl (some centres undefined) ?
Given back: No

Asked: What did the test return for Clc1ccc(C(c2ccccc2Cl)C(Cl)Cl)cc1 (centres undefined) ?
Given back: No

Asked: What did the test return for O=C[C@H](O)[C@H](O)[C@H](O)CO ?
Given back: No

Asked: What did the test return for Brc1ccccn1 ?
Given back: No

Asked: What did the test return for COc1ccc2sc(C(=O)Nc3nnn[nH]3)c(OC(C)C)c2c1 ?
Given back: Yes

Asked: What did the test return for CCOCN(C(=O)CS(=O)(=O)O)c1c(C)cccc1CC ?
Given back: No

Asked: What did the test return for CCCCCCCCC(C)=O ?
Given back: No

Asked: What did the test return for C#CC(O)CCC (centres undefined) ?
Given back: No

Asked: What did the test return for CS(C)(=O)=O ?
Given back: No

Asked: What did the test return for C=CC(C)C#N (centres undefined) ?
Given back: No

Asked: What did the test return for CC(C)(C)C1=CC(=O)C=C(C(C)(C)C)C1=O ?
Given back: No

Asked: What did the test return for COc1ccccc1OCCNCC(O)COc1cccc2[nH]c3ccccc3c12 (centres undefined) ?
Given back: No

Asked: What did the test return for CCOC(=O)CC(C)O (centres undefined) ?
Given back: No

Asked: What did the test return for CCCCCCCC/C=C\CCCCCCCC(=O)NCc1ccc(O)c(OC)c1 ?
Given back: No

Asked: What did the test return for COc1cccc(OC)c1O ?
Given back: No

Asked: What did the test return for CC(C)c1ccc(O)c(C(C)C)c1 ?
Given back: No

Asked: What did the test return for CC(C)(c1cc(Br)c(O)c(Br)c1)c1cc(Br)c(O)c(Br)c1 ?
Given back: No

Asked: What did the test return for CCc1cccc(C)c1 ?
Given back: No

These data points were gathered from PubChem BioAssay (Tox21).
